System: HT-29
protocol_description: NCI tumour cell line growth inhibition, 48 h
Active and inactive are the calls of the source. Rule as the data show it: active = GI50 up to about 1.1 µM and inactive = higher.
value_type: GI50

The cases that follow already have their GI50 on record.
Note down GI50 recorded for Cc1ccc(/N=N/C(=NNC(=O)c2ccc(C)cc2)c2ccc(N(C)C)cc2)cc1
31.1 µM (inactive)

Return value of GI50 for input COc1cc(/C=C(\C#N)C(=O)c2ccccc2)ccc1O , no commentary.
> 100 µM (inactive)

---
Answer with the recorded GI50 for the compound listed here: Cn1cnnc1Sc1c([N+](=O)[O-])ncn1C
> 100 µM (inactive)

Give GI50 for the following compound: C/C1=N\[N-]C(=O)c2ccccc2C(=O)N/N=C(\C)c2cccc1n2.O=[N+]([O-])[O-].[Zn+2]
> 100 µM (inactive)

Complete the entry with GI50 for CN(C)/C=N/CCN1CCOCC1
> 100 µM (inactive)

Give GI50 for CC12CP(=O)(O)CC1C2(Cl)Cl (stereo unspecified)
> 100 µM (inactive)

Look up and report measured GI50 for this entry: C1=N\c2ccc(cc2)/N=C\c2ccc(cc2)OCc2cccc(n2)COc2ccc/1cc2
> 100 µM (inactive)
